test system: HT-29; assay: Antiproliferative activity against human HT-29 cells after 48 hrs by sulforhodamine B assay; assay type: functional, cell-based; details: HT-29, 48 h
Endpoint Name: IC50

Query: Value wanted: IC50 (HT-29) of entry `H-CLLIILRRRIRKQAHAHSK-OH`
Reply: > 100 µM
